system: MDA-MB-435; assay: NCI tumour cell line growth inhibition, 48 h
The source made the active and inactive calls. Cut-off read from the data, not from the text of the source: active = GI50 up to about 1.1 µM and inactive = higher.
parameter-measured: GI50

INSERT INTO measurements (compound, experimental_result) VALUES
  ('COc1ccc2nc3ccc(OC)cc3c(S(=O)(=O)Cc3ccc([N+](=O)[O-])cc3)c2c1', '> 100 µM (inactive)'),
  ('CCOC(=O)Cc1c(C(=O)OCC)[n+]([O-])c2cc(Cl)c(Cl)cc2[n+]1[O-]', '2.77 µM (inactive)'),
  ('CC(=O)CC(O)(C(F)(F)Cl)C(F)(Cl)Cl (stereo not given)', '> 10 µM (inactive)'),
  ('O=C(/C=C/c1ccc(Cl)c(Cl)c1)Oc1ccc(/C=C2\CCCCC2=O)cc1', '78.2 µM (inactive)'),
  ('NS(=O)(=O)c1ccc(/N=N/c2ncccc2O)cc1', '> 100 µM (inactive)'),
  ('COC(=O)CCc1c(Cc2ccc[nH]2)[nH]c(C(=O)OCc2ccccc2)c1C', '18.3 µM (inactive)'),
  ('COc1cc(C2c3cc4c(cc3C(O)C3CCC(=O)N23)OCO4)cc(OC)c1OC (stereo not given)', '3.54 µM (inactive)'),
  ('CC(=O)ON(C(C)=O)c1ccc(-c2nc3ccccc3s2)cc1', '26.9 µM (inactive)'),
  ('COc1ccc2c3c1O[C@H](c1ccc(O)cc1)[C@H]3[N+](C)(C)CC2', '> 100 µM (inactive)');

We next turn to a different compound, shown below.
Data request: Would you kindly share the measured GI50 for `O=C(O)CC/C(=N\Nc1nsc2ccccc12)c1ccc(Cl)cc1` ?
Data returned: 27.5 µM (inactive)

###

tested on: SN12C; experiment: NCI tumour cell line growth inhibition, 48 h
Active and inactive are the calls of the source. No stated cut-off is given here; in the data, active = GI50 up to about 1.1 µM and inactive = higher.
Parameter call: string, one of 1 = active, 0 = inactive

Worked examples follow.
INSERT INTO assay_data (compound, class) VALUES
  ('C/C=C(\C)C(O)C(C)C(O)C/C=C(C)/C=C(\C)C/C(C)=C/C/C=C(\C)C(O)C(C)c1ccc(CCC)c(=O)o1 (stereo not drawn)', 0),
  ('CC1(C)CCc2cc3c(-c4ccccc4)cc(=O)oc3cc2O1', 0),
  ('COc1ccc2cc(C(=O)NCCc3ccccc3)ccc2c1OC', 0),
  ('N#CCCC1C(C#N)C2(Cl)CC1(Cl)C(Cl)=C2Cl (stereo not drawn)', 0),
  ('O=C(Nc1ccccc1)c1ccc(Cl)c([N+](=O)[O-])c1', 0),
  ('CC(=O)Nc1ccc2nc(N)n[n+]([O-])c2c1', 0);

Data request: So what was the verdict on `Cn1c2ccccc2c2[nH]cc3nc4ccccc4c-3c21` in this test?
Data returned: 0

Data request: Hi, do you know how `C=CCn1c(-c2ccc([N+](=O)[O-])cc2)csc1=N` came out in this test?
Data returned: 0

###

tested on: NCI/ADR-RES; test: NCI tumour cell line growth inhibition, 48 h
The source made the active and inactive calls. Cut-off read from the data, not from the text of the source: active = GI50 up to about 1.1 µM and inactive = higher.
Outcomes you can answer with include only these: t for active, f for inactive

As a guide, the following entries are already answered.
INSERT INTO measurements (molecule, class) VALUES
  ('c1ccc2c(NCCCCCCNc3c4ccccc4nc4ccccc34)c3ccccc3nc2c1', 'f'),
  ('CC(C)(O)/C=C/C(=O)[C@](C)(O)[C@H]1[C@H](O)C[C@@]2(C)[C@@H]3CC=C4[C@@H](C=C(O)C(=O)C4(C)C)[C@]3(C)C(=O)C[C@]12C', 't'),
  ('CCOC(=O)CN1C(=O)c2c(c(C)n(-c3ccccc3)c2C)C1=O', 'f'),
  ('CN/C(=N\c1ccc(OC)c2ccccc12)SC', 'f'),
  ('O=C1C[C@H]2[C@@H](O1)[C@@H](O)CN1C(=O)c3ccccc3[C@H]21', 'f');

Data request: Test call for this molecule, please: `CCCN(CCc1ccc(-c2ccccc2)cc1)CCc1ccc2nn[nH]c2c1`
Data returned: f

Data request: Hey, what did the test say about CC1OC(OC2C(CO)OC(O[C@H]3CC[C@@]4(C)C(=CC[C@H]5[C@@H]6C[C@@H]7O[C@](O)(CC[C@H](CO)COC8OC(CO)C(O)C(O)C8O)[C@@H](C)[C@@H]7[C@@]6(C)CC[C@@H]54)C3)C(OC3OC(C)C(O)C(O)C3O)C2O)C(O)C(O)C1O (some centres not stated) ?
Data returned: f

###

tested on: KM12; test: NCI tumour cell line growth inhibition, 48 h
Active and inactive are the calls of the source. No stated cut-off is given here; in the data, active = GI50 up to about 1.1 µM and inactive = higher.
API: response.call in class 1 (active), class 0 (inactive)

INSERT INTO results (compound, class) VALUES
  ('CCN(CC)/C(SCc1ccccc1)=C(\C(Cl)=C(Cl)Cl)[N+](=O)[O-]', 'class 0'),
  ('Clc1ccccc1C(c1ccccc1)(c1ccccc1)n1ccnc1', 'class 0'),
  ('c1ccc2c(NCCCCCCNc3c4ccccc4nc4ccccc34)c3ccccc3nc2c1', 'class 1'),
  ('CCOC(=O)c1c(O)cc(=O)[nH]c1N1CCOCC1', 'class 0'),
  ('Cc1ccc(S(=O)(=O)N2CCCSCCSCCCSCC2)cc1', 'class 0');

Data request: Outcome? CCC1OC2C(CC=C(C)C)=C3OC(C)(O)C(C)(CC)C(=O)C3=C3OC(=O)C=C1C32 (stereo not given)
Data returned: class 0

Data request: I would be grateful if you could indicate the recorded call for `COc1cc2oc(=O)cc(C)c2cc1OC` .
Data returned: class 0

Data request: Name the outcome recorded for C#CCN(Cc1ccc2[nH]c(N)nc(=O)c2c1)c1ccc(C(=O)NC(CCC(=O)O)C(=O)O)cc1 (stereo not given) in the assay.
Data returned: class 0

Data request: Called result for COC(=O)CCC(=O)c1ccc2c(c1)CC1(C2)Cc2ccc3c(c2C1)CCCC3=O (stereo not given)
Data returned: class 0

Data request: Hello, I am checking results. What call was entered for `C=CC(C)(C)n1cc(C2=C(O)C(=O)C(c3c(CC=C(C)C)[nH]c4ccccc34)=C(O)C2=O)c2ccccc21` ?
Data returned: class 1

###

Measured GI50, listed per entry for reference.
system: SN12C; assay: NCI tumour cell line growth inhibition, 48 h
The source made the active and inactive calls. Rule as the data show it: active = GI50 up to about 1.1 µM and inactive = higher. Where a SMILES comes first, the peptide text is derived from it. [ ]: non-standard residue; d: D form. The star is where a group is joined. ξ: configuration not given here. ξPhe(4-NO2) = NC(Cc1ccc([N+](=O)[O-])cc1)C(=O)O; Boc = CC(C)(C)OC(=O)*

INSERT INTO results (molecule, experimental_result) VALUES
  ('Nc1cc(N)c(/N=N/c2cccc3c(S(=O)(=O)O)cccc23)cc1/N=N/c1cc([N+](=O)[O-])ccc1O', '32.3 µM (inactive)'),
  ('COc1ccc(/C=C/C(=O)C(C)(C)CN2CCCCC2)cc1', '18.3 µM (inactive)'),
  ('CN(C)Cc1nsc(N(C)C)n1', '> 100 µM (inactive)'),
  ('COC(=O)NC(Cc1ccccc1)NC(=O)OC(C)(C)C (stereo not given)', '> 100 µM (inactive)'),
  ('CCOP(=O)(OCC)C(NC(=O)C(C(F)(F)F)C(F)(F)F)c1ccccc1 (stereo not given)', '> 100 µM (inactive)'),
  ('CCNC(=O)CNC(=O)C(Cc1ccc([N+](=O)[O-])cc1)NC(=O)OC(C)(C)C (stereo not given) (Boc-[ξPhe(4-NO2)]-Gly-NHEt)', '> 100 µM (inactive)'),
  ('CCC1CCCCN1CC(C(C)=O)C(c1ccccc1)c1c(O)c2ccccc2oc1=O (stereo not given)', '> 100 µM (inactive)'),
  ('CC(=O)ON(C(C)=O)c1ccc(-c2nc3ccccc3s2)cc1', '40.7 µM (inactive)');

Data request: # input molecule: COC(=O)C1=C(C(=O)OC)C2=S(SC3=C2CCCC3)S1 (stereo not given) ; wanted: its GI50
Data returned: 25.5 µM (inactive)

Data request: GET /values?readout=GI50&item= `Nc1ccccc1C(=O)NNC(=O)c1ccccc1N`
Data returned: > 100 µM (inactive)

###

The entries below come with measured GI50 values attached.
tested on: SK-MEL-28; test: NCI tumour cell line growth inhibition, 48 h
Activity calls are given as the source filed them. Cut-off read from the data, not from the text of the source: active = GI50 up to about 1.1 µM and inactive = higher.

INSERT INTO measurements (compound, parameter_measured, experimental_result) VALUES
  ('O=C(Nc1ccccc1)Nn1c(-c2cccs2)nc2ccc(I)cc2c1=O', 'GI50', '20.5 µM (inactive)'),
  ('CC(=O)OC(Cn1cncn1)(Cn1cncn1)c1ccc(Cl)cc1Cl', 'GI50', '> 100 µM (inactive)'),
  ('COC(=O)[C@H](Cc1ccccc1)NC(=O)N1CCN(C(=O)N[C@@H](Cc2ccccc2)C(=O)OC)CCN(C(=O)N[C@@H](Cc2ccccc2)C(=O)OC)CC1', 'GI50', '> 100 µM (inactive)'),
  ('C=CCNS(=O)(=O)c1ncnc2[nH]cnc12', 'GI50', '> 100 µM (inactive)'),
  ('O=C(O)c1nc(-c2ccccc2)ncc1-c1nnnn1-c1ccccc1', 'GI50', '> 100 µM (inactive)'),
  ('CC1(C)CC(=O)C2=C(C1)NC(=S)C(C#N)C2c1ccccc1 (stereo not given)', 'GI50', '> 100 µM (inactive)'),
  ('COc1ccc(/C=C/C(=O)C(C)(C)CN2CCCCC2)cc1', 'GI50', '24.2 µM (inactive)'),
  ('O=C(c1ccc(Cl)cc1)c1ccc(OCCCCCCCCCCOc2ccc(C(=O)c3ccc(Cl)cc3)cc2)cc1', 'GI50', '> 100 µM (inactive)'),
  ('Cc1nc(-[n+]2nc(-c3ccncc3)nn2-c2ccccc2)sc1C', 'GI50', '34.5 µM (inactive)');

Would you kindly look at the next entry?
Data request: Please report the recorded GI50 for `Oc1ccc2c(c1)-c1c(c3cc(O)ccc3n1CCN1CCOCC1)CC2` .
Data returned: 18.5 µM (inactive)
